Origin of measurements: ChEMBL document CHEMBL5107954

Test: Metabolic stability in mouse liver microsomes assessed as half-life at 1 uM measured upto 15 mins in the presence of NADPH as co-factor by LC-MS/MS analysis
Type: ADME, Microsome
recorded_metric: half-life at 1 µM
Give the value; after it, write the unit.

Which value of half-life at 1 µM has been reported for CN(C(=O)[C@H](Cc1ccccc1)NC(=O)CN1CCN(C(=O)c2cccc(Br)c2)CC1=O)c1ccc(Cl)cc1 in the records?
1.4 min

Which value of half-life at 1 µM has been reported for CN(C(=O)[C@H](Cc1ccccc1)NC(=O)COn1nnc2cccnc21)c1ccc(Cl)cc1 in the records?
0.5 min

Which value of half-life at 1 µM has been reported for CN(C(=O)[C@H](Cc1ccccc1)NC(=O)CN1CCN(C(=O)c2ccccc2[N+](=O)[O-])CC1=O)c1ccc(Cl)cc1 in the records?
0.9 min

Which value of half-life at 1 µM has been reported for CN(C(=O)[C@H](Cc1ccccc1)NC(=O)CN1CCN(C(=O)c2ccccc2F)CC1=O)c1ccc(Cl)cc1 in the records?
0.9 min
